- Tested on: HeLa cells
- experimental-details: Cell antiproliferative activity assay (CCK8)
- Type: cell-based, human
- measurement-context: Homo sapiens; HELA 2000cells/well; 500 nM; Repeat2; read-out: Inhibition (%) Repeat2
Each entry below carries its reported inhibition at 0.5 µM.
assay-endpoint: inhibition at 0.5 µM (%)

> print(dat)
                                  mol.smiles  endpoint.value
 1  COCCOc1cc2ncnc(Nc3cccc(-c4cn(Cc5cc(Br)cc(Br)c5)nn4)c3)c2cc1OCCOC            13.6
 2  COCCOc1cc2ncnc(Nc3cccc(-c4cn(Cc5ccccc5Br)nn4)c3)c2cc1OCCOC            1.82
 3  COCCOc1cc2ncnc(Nc3cccc(-c4cn(Cc5ccccc5I)nn4)c3)c2cc1OCCOC               0
 4  COCCOc1cc2ncnc(Nc3cccc(-c4cn(-c5ccccc5Cl)nn4)c3)c2cc1OCCOC            3.15
 5  COCCOc1cc2ncnc(Nc3cccc(-c4cn(-c5ccccc5OC)nn4)c3)c2cc1OCCOC            6.96
 6  COCCOc1cc2ncnc(Nc3cccc(-c4cn(-c5ccccc5Br)nn4)c3)c2cc1OCCOC            5.74
 7  COCCOc1cc2ncnc(Nc3cccc(-c4cn(-c5cccc([N+](=O)[O-])c5)nn4)c3)c2cc1OCCOC            5.51
 8  CCOc1cccc(-n2cc(-c3cccc(Nc4ncnc5cc(OCCOC)c(OCCOC)cc45)c3)nn2)c1            4.33
 9  COCCOc1cc2ncnc(Nc3cccc(-c4cn(-c5ccc(F)cc5)nn4)c3)c2cc1OCCOC            5.02
10  COCCOc1cc2ncnc(Nc3cccc(-c4cn(-c5ccccc5F)nn4)c3)c2cc1OCCOC           0.418
11  COCCOc1cc2ncnc(Nc3cccc(-c4cn(-c5ccc(Br)cc5)nn4)c3)c2cc1OCCOC            2.97
12  COCCOc1cc2ncnc(Nc3cccc(-c4cn(-c5cccc(OC)c5)nn4)c3)c2cc1OCCOC            2.08
13  COCCOc1cc2ncnc(Nc3cccc(-c4cn(-c5ccc(C)cc5)nn4)c3)c2cc1OCCOC           0.522
14  COCCOc1cc2ncnc(Nc3cccc(-c4cn(Cc5ccccc5)nn4)c3)c2cc1OCCOC            5.61

* * *

- System: HeLa cells
- experimental-details: Cell antiproliferative activity assay (CCK8)
- Format: cell-based, human
- measurement-context: Homo sapiens; HELA 2000cells/well; 500 nM; Repeat1; read-out: Inhibition (%) Repeat1
assay-endpoint: inhibition at 0.5 µM (%)

> print(dat)
                                  mol.smiles  endpoint.value
 1  COCCOc1cc2ncnc(Nc3cccc(-c4cn(Cc5ccccc5)nn4)c3)c2cc1OCCOC             8.2
 2  COCCOc1cc2ncnc(Nc3cccc(-c4cn(-c5ccccc5F)nn4)c3)c2cc1OCCOC            2.51
 3  COCCOc1cc2ncnc(Nc3cccc(-c4cn(-c5ccc(C)cc5)nn4)c3)c2cc1OCCOC            5.57
 4  COCCOc1cc2ncnc(Nc3cccc(-c4cn(-c5ccccc5OC)nn4)c3)c2cc1OCCOC             4.2
 5  COCCOc1cc2ncnc(Nc3cccc(-c4cn(-c5cccc(OC)c5)nn4)c3)c2cc1OCCOC            4.97
 6  COCCOc1cc2ncnc(Nc3cccc(-c4cn(Cc5ccccc5I)nn4)c3)c2cc1OCCOC            12.5
 7  CCOc1cccc(-n2cc(-c3cccc(Nc4ncnc5cc(OCCOC)c(OCCOC)cc45)c3)nn2)c1            4.33
 8  COCCOc1cc2ncnc(Nc3cccc(-c4cn(-c5ccccc5Br)nn4)c3)c2cc1OCCOC            6.42
 9  COCCOc1cc2ncnc(Nc3cccc(-c4cn(-c5ccc(Br)cc5)nn4)c3)c2cc1OCCOC          0.0873
10  COCCOc1cc2ncnc(Nc3cccc(-c4cn(-c5cccc([N+](=O)[O-])c5)nn4)c3)c2cc1OCCOC            3.48
11  COCCOc1cc2ncnc(Nc3cccc(-c4cn(-c5ccc(F)cc5)nn4)c3)c2cc1OCCOC           0.279
12  COCCOc1cc2ncnc(Nc3cccc(-c4cn(-c5ccccc5Cl)nn4)c3)c2cc1OCCOC            7.08
13  COCCOc1cc2ncnc(Nc3cccc(-c4cn(Cc5ccccc5Br)nn4)c3)c2cc1OCCOC            4.15
14  COCCOc1cc2ncnc(Nc3cccc(-c4cn(Cc5cc(Br)cc(Br)c5)nn4)c3)c2cc1OCCOC              13

* * *

assay-endpoint: melting point

> print(dat)
                                    molecule  endpoint.value
 1  COCCOc1cc2ncnc(Nc3cccc(-c4cn(-c5ccc(Br)cc5)nn4)c3)c2cc1OCCOC [Compound 4j]   105 to 108 °C
 2  COCCOc1cc2ncnc(Nc3cccc(-c4cn(-c5ccccc5OC)nn4)c3)c2cc1OCCOC [Compound 4k]     87 to 90 °C
 3  COCCOc1cc2ncnc(Nc3cccc(-c4cn(-c5cccc([N+](=O)[O-])c5)nn4)c3)c2cc1OCCOC [Compound 4m]    98 to 101 °C
 4  CCOc1cccc(-n2cc(-c3cccc(Nc4ncnc5cc(OCCOC)c(OCCOC)cc45)c3)nn2)c1 [Compound 4n]   110 to 114 °C
 5  COCCOc1cc2ncnc(Nc3cccc(-c4cn(-c5ccccc5Br)nn4)c3)c2cc1OCCOC [Compound 4i]     93 to 97 °C
 6  COCCOc1cc2ncnc(Nc3cccc(-c4cn(-c5ccc(F)cc5)nn4)c3)c2cc1OCCOC [Compound 4g]     88 to 91 °C
 7  COCCOc1cc2ncnc(Nc3cccc(-c4cn(Cc5ccccc5I)nn4)c3)c2cc1OCCOC [Compound 4b]     93 to 96 °C
 8  COCCOc1cc2ncnc(Nc3cccc(-c4cn(Cc5ccccc5Br)nn4)c3)c2cc1OCCOC [Compound 4c]     94 to 97 °C
 9  COCCOc1cc2ncnc(Nc3cccc(-c4cn(-c5ccccc5Cl)nn4)c3)c2cc1OCCOC [Compound 4h]   131 to 134 °C
10  COCCOc1cc2ncnc(Nc3cccc(-c4cn(Cc5ccccc5)nn4)c3)c2cc1OCCOC [Compound 4a]     89 to 92 °C
11  COCCOc1cc2ncnc(Nc3cccc(-c4cn(-c5ccc(C)cc5)nn4)c3)c2cc1OCCOC [Compound 4l]     95 to 98 °C
12  COCCOc1cc2ncnc(Nc3cccc(-c4cn(-c5ccccc5F)nn4)c3)c2cc1OCCOC [Compound 4f]     83 to 86 °C
